Field: Kd. Provide a value for each of the binders that follow.
system under test: T1, GABARAP (human, UniProt O95166 1-117, limits assumed)
T1 construct: elsewhere only "mammalian"
T1 sequence (O95166 whole entry): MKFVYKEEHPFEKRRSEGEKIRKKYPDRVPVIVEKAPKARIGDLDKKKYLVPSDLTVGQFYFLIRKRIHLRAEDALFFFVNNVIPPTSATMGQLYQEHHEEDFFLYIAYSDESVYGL
assay procedure: ITC
One number for each entry, in nM.

Use these answered entries as a reference point.
# binder, unit annotation, Kd
records = [
    ("PEDDWTEFSSERIREARQAAASHAPS (also called AnkG E1996R) [E1996R]", "nM", 398),
    ("PEDDWTEFSSEEQREARQAAASHAPS (also called AnkG I1997Q) [I1997Q]", "nM", 68),
    ("PEDDWTEFSSEEIREQRQAAASHAPS (also called AnkG A2000Q) [A2000Q]", "nM", 741),
    ("PEDDWTRFSSEEIREARQAAASHAPS (also called AnkG ER; Glu1991Arg AnkG LIR) [AnkG E1991R (modified from rat 480 kD AnkG residues 1985-2010)]", "nM", 6.9),
]

Here is the next item to consider.
Supply measured Kd of PEDDWTEFSSEEIREA [AnkG LIR construct "1985-2000" (aa 2001-2010 truncated)] in your reply.
510
